- Test system: HCT116 cells
- ASSAY REMARKS: Anti-proliferation assay on cells (Cell-Titer Glo, 10 days)
- Format: cell-based
- MEASUREMENT SETUP: ratio of GI50 values
Recorded Selectivity multiple of HCT116^MTAP WT GI50/ HCT116^MTAP Deletion GI50 for the following molecules
EXPERIMENTAL ENDPOINT: Selectivity multiple of HCT116^MTAP WT GI50/ HCT116^MTAP Deletion GI50

[
  {
    "MOLECULE": "Cc1ccc(-c2ccc3c(c2)COCC3N(C)C(=O)C(=O)Nc2cnc(N)c3c2cnn3C)cn1 (stereo not shown)",
    "MEASURED VALUE": 221
  },
  {
    "MOLECULE": "CN(C(=O)C(=O)Nc1cnc(N)c2c1cnn2C)C1COc2cc(Cl)c(Cl)cc21 (stereo not shown) [Example 186-P1]",
    "MEASURED VALUE": 210
  },
  {
    "MOLECULE": "CN(C(=O)C(=O)Nc1cnc(N)c2c1cnn2C)C1COCc2cc(C3=CCOCC3)ccc21 (stereo not shown) [Example 132-P1]",
    "MEASURED VALUE": 266
  },
  {
    "MOLECULE": "CN(C(=O)C(=O)Nc1cnc(N)c2c1cnn2C)C1COCc2c1ccc(C(F)(F)F)c2F (stereo not shown)",
    "MEASURED VALUE": 226
  },
  {
    "MOLECULE": "CN(C(=O)C(=O)Nc1cnc(N)c2c1cnn2C)C1COCc2c1ccc(Cl)c2Cl (stereo not shown) [Example 168-P1]",
    "MEASURED VALUE": 147
  },
  {
    "MOLECULE": "CN(C(=O)C(=O)Nc1cnc(N)c2c1cnn2C)C1COCc2cc(C(F)(F)F)c(F)cc21 (stereo not shown)",
    "MEASURED VALUE": 61
  },
  {
    "MOLECULE": "CC1OCC(N(C)C(=O)C(=O)Nc2cnc(N)c3c2cnn3C)c2ccc(C(F)(F)F)cc21 (single isomer, unassigned) [Example 187-P1]",
    "MEASURED VALUE": 78
  }
]

* * *

Recorded Selectivity multiple of HCT116^MTAP WT GI50/ HCT116^MTAP Deletion GI50 for the following compounds
- System: HCT116 cells
- ASSAY REMARKS: Anti-proliferation assay on cells (Cell-Titer Glo, 10 days)
- Format: cell-based
- MEASUREMENT SETUP: ratio of GI50 values
EXPERIMENTAL ENDPOINT: Selectivity multiple of HCT116^MTAP WT GI50/ HCT116^MTAP Deletion GI50

[
  {
    "COMPOUND": "CN(C(=O)C(=O)Nc1cnc(N)c2c1cnn2C)C1COCc2cc(C3=CCOCC3)ccc21 (stereo not shown) [Example 100]",
    "MEASURED VALUE": 179
  },
  {
    "COMPOUND": "CCC(C)N(Cc1ccc(-c2cnn(C)c2)cn1)C(=O)C(=O)Nc1cnc(N)c2c1cnn2C (stereo not shown)",
    "MEASURED VALUE": 119
  },
  {
    "COMPOUND": "CCC(C)N(Cc1ccc(OC(F)(F)F)cn1)C(=O)C(=O)Nc1cnc(N)c2c1cnn2C (stereo not shown)",
    "MEASURED VALUE": 125
  },
  {
    "COMPOUND": "CN(C(=O)C(=O)Nc1cnc(N)c2c1cnn2C)C1COCc2cc(-c3ccn(C)n3)ccc21 (stereo not shown)",
    "MEASURED VALUE": 244
  },
  {
    "COMPOUND": "CN(C(=O)C(=O)Nc1cnc(N)c2c1cnn2C)C1COc2cc(-c3ccnn3C)ccc21 (stereo not shown) [Example 192-P1]",
    "MEASURED VALUE": 252
  },
  {
    "COMPOUND": "CN(C(=O)C(=O)Nc1cnc(N)c2c1cnn2C)C1COc2cc(C(F)(F)F)ccc21 (single isomer, unassigned) [Example 112-P1]",
    "MEASURED VALUE": 385
  },
  {
    "COMPOUND": "Cc1cc(-c2ccc3c(c2)OCC3N(C)C(=O)C(=O)Nc2cnc(N)c3c2cnn3C)on1 (stereo not shown)",
    "MEASURED VALUE": 295
  }
]
